Assign %Inh to each entry below.
System: WNK4
CONDITION_LABEL: concentration: 1 μM, replicates: in singlicate; n = 1;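 note: KINOMEscan kinase panel screen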
Output spec: scalar in %, unitless text.

Entry `CN(C(=O)c1ccc(-c2cc(-c3c[nH]nc3-c3ccccn3)ccn2)cc1)C1CCOCC1` , %Inh reported as 0

Entry `Cc1cccc(-c2nc(-c3ccc(S(C)(=O)=O)cc3)sc2-c2ccncc2)c1` , %Inh reported as 0

Entry COc1ccc(CNC(=O)NC2CCN(c3ccnc(Nc4ccc(OC)cc4)n3)C2)cc1 (stereo not drawn) , %Inh reported as 63

Entry `CN1c2ccc(CNc3ccc(F)cc3)cc2-c2c(cnn2C)S1(=O)=O` , %Inh reported as 0

Entry `COc1ccc(Nc2ncc(C#N)c(Nc3ccccc3C(N)=O)n2)cc1N1CCN(C)CC1.Cl` , %Inh reported as 0

Entry COc1ccc(Nc2nccc(N3CCC(NC(=O)Nc4cc(C)ccc4C)C3)n2)cc1 (stereo not drawn) , %Inh reported as 40

Entry `Fc1ccc(-c2nn3c(OCC(F)(F)F)cccc3c2-c2ccncc2)cc1` , %Inh reported as 38

Entry `N#Cc1ccc(-c2cc(-c3c[nH]nc3-c3ccccn3)ccn2)cc1` , %Inh reported as 30

Entry `CCc1ccnc(/C=C/c2n[nH]c3cc(Sc4ccccc4C(=O)NC)ccc23)c1` , %Inh reported as 0

Entry Cc1c(Cn2c(C)nn3c(=O)cc(N4CCOC(C)C4)nc23)cccc1C(F)(F)F (stereo not drawn) , %Inh reported as 0

Entry `O=C(NCCNc1ccnc(Nc2ccc(F)cc2)n1)Nc1ccccc1F` , %Inh reported as 41

Entry `CCCCCc1nc2c(N)ncnc2n1CCCCC` , %Inh reported as 0

Entry `Cc1cn2c(=O)cc(N3CCOCC3)nc2n1Cc1cccc(Cl)c1Cl` , %Inh reported as 0

Entry `Cl.Nc1ncnc2occ(-c3ccc(NC(=O)Nc4cc(C(F)(F)F)ccc4F)cc3)c12` , %Inh reported as 13

Entry Cc1nnc(-c2ccc3ncc(-c4ccc(S(C)=O)cc4)n3c2)o1 (stereo not drawn) , %Inh reported as 7

Entry `Cn1ccc2ncnc(Oc3ccc(NC(=O)Nc4ccncc4)c(Cl)c3)c21` , %Inh reported as 0

Entry `N#Cc1c(N2CCOCC2)sc(-c2ccn[nH]2)c1-c1ccc(Cl)cc1` , %Inh reported as 34

Entry `Nc1nccc(-c2c(-c3ccc(F)cc3)ncn2C2CCN(CC(F)(F)F)CC2)n1` , %Inh reported as 0

---

Tested on: HASPIN
Construct: gene GSG2
CONDITION_LABEL: concentration: 1 μM, replicates: in singlicate; n = 1
OBSERVABLE: %Inh
Answer with the figure and its unit, nothing else.

Entry `NS(=O)(=O)CCc1cccc(Nc2nccc(-c3c(-c4cccc(NC(=O)c5c(F)cccc5F)c4)nn4ccccc34)n2)c1` , %Inh reported as 0%

Entry `CCCCCc1nc2c(N)ncnc2n1CCCCC` , %Inh reported as 2%

Entry `Cc1ccc(NC(=O)c2ccnc(N3CCN(C)CC3)c2)cc1-c1ccc(C(=O)NCC2CC2)cc1` , %Inh reported as 0%

Entry `O=c1cc(N2CCOCC2)nc2n(Cc3cccc(Cl)c3Cl)c(C3CC3)nn12` , %Inh reported as 0%

Entry `N#Cc1c(N2CCOCC2)sc(-c2ccn[nH]2)c1-c1ccc(Cl)cc1` , %Inh reported as 6%

Entry `O=C(c1ccc(-c2cc(-c3c[nH]nc3-c3ccccn3)ccn2)cc1)N1CCOCC1` , %Inh reported as 0%

Entry `Cn1cc(-c2ccc3c(c2)CCN3C(=O)Cc2ccccc2Cl)c2c(N)ncnc21` , %Inh reported as 0%

Entry `Cc1nnc(-c2ccc(C)c(-c3ccc(C(=O)Nc4ccc(NS(C)(=O)=O)cc4)cc3)c2)o1` , %Inh reported as 46%

Entry `O=C(Nc1cccc(-c2nn3ncccc3c2-c2ccnc(Nc3cccc(C(F)(F)F)c3)n2)c1)c1c(F)cccc1F` , %Inh reported as 2%

Entry `N#Cc1ccc(-c2cc(-c3c[nH]nc3-c3ccccn3)ccn2)cc1` , %Inh reported as 0%

Entry COc1ccc(Nc2nccc(N3CCC(NC(=O)Nc4cccc(C(C)=O)c4)C3)n2)cc1 (stereo not shown) , %Inh reported as 17%

Entry `COc1ccc(Nc2ncc(C#N)c(Nc3ccccc3C(N)=O)n2)cc1N1CCN(C)CC1.Cl` , %Inh reported as 88%

Entry `c1ccc(-c2n[nH]cc2-c2ccnc3ccccc23)nc1` , %Inh reported as 10%

Entry NCC(NC(=O)c1cc(-c2cn[nH]c2)c(-c2ccnc3[nH]ccc23)s1)c1ccccc1.O=C(O)C(F)(F)F.O=C(O)C(F)(F)F (stereo not shown) , %Inh reported as 84%

Entry Cc1nnc(-c2ccc3ncc(-c4ccc(S(C)=O)cc4)n3c2)o1 (stereo not shown) , %Inh reported as 30%

Entry `O=c1cc(N2CCOCC2)nc2n(Cc3cccc(F)c3)ccn12` , %Inh reported as 4%

---

Tested on: PAK6
CONDITION_LABEL: concentration: 1 μM, replicates: in singlicate; n = 1
Assign %Inh to each entry below.
Output spec: scalar in %, unitless text.

Measured %Inh (PAK6), entry COc1ccc(S(=O)(=O)NC2CCN(c3cc(C)nc(Nc4cccc(C#N)c4)n3)CC2)cc1.O=C(O)C(F)(F)F [GSK1653539] : 0

Measured %Inh (PAK6), entry NS(=O)(=O)c1cccc(-c2ccc3nccc(-c4cccc(S(N)(=O)=O)c4)c3c2)c1 [GW867253] : 0

Measured %Inh (PAK6), entry COc1ccc(Nc2ncc(C#N)c(Nc3ccccc3C(N)=O)n2)cc1N1CCN(C)CC1.Cl [GSK1558669] : 93.9

Measured %Inh (PAK6), entry Nc1nc(-c2ccc3c(N)n[nH]c3c2)cc(N2CCCC2)n1 [GSK2227430] : 0

Measured %Inh (PAK6), entry Cl.Nc1ncnc2occ(-c3ccc(NC(=O)Nc4cc(C(F)(F)F)ccc4F)cc3)c12 [SB-707548] : 6

Measured %Inh (PAK6), entry [2H]C([2H])(c1cccc(C(F)(F)F)c1C)n1ccn2c(=O)nc(N3CCOCC3)cc12 [GSK2336394] : 0

Measured %Inh (PAK6), entry CC(C)Oc1ccc2c(-c3ccnc(Nc4ccc(N5CCN(C)CC5)cc4)n3)cnn2n1 [GW696155] : 56

Measured %Inh (PAK6), entry COc1ccc(CNC(=O)NC2CCN(c3ccnc(Nc4ccc(OC)cc4)n3)C2)cc1 (centres unmarked) [GSK1379727] : 0

---

Tested on: EIF2AK1
CONDITION_LABEL: concentration: 1 μM, replicates: in singlicate; n = 1
Assign %Inh to each entry below.
Output spec: scalar in %, unitless text.

Entry Cc1nnc(-c2ccc3ncc(-c4ccc(S(C)=O)cc4)n3c2)o1 (centres unmarked) , %Inh reported as 6

Entry `c1ccc(-c2cc(-c3c[nH]nc3-c3ccccn3)ccn2)cc1` , %Inh reported as 0

Entry COc1cc(Nc2nccc(N3CCC(NC(=O)c4cccc(NC(C)=O)c4)C3)n2)cc(OC)c1OC (centres unmarked) , %Inh reported as 0

Entry `CC(C)Oc1ccc2c(-c3ccnc(Nc4ccc(N5CCN(C)CC5)cc4)n3)cnn2n1` , %Inh reported as 0

Entry `O=C1NC(=O)C(N2CCc3ccccc32)=C1c1cccc(Cl)c1` , %Inh reported as 5

---

Assign %Inh to each entry below.
Tested on: PIK3CG
CONDITION_LABEL: concentration: 1 μM, replicates: in singlicate; n = 1

Measured %Inh (PIK3CG), entry `Nc1nccc(-c2c(-c3ccc(F)cc3)ncn2C2CCN(CC(F)(F)F)CC2)n1` : 66%

Measured %Inh (PIK3CG), entry `O=C(Nc1n[nH]c2cc(-c3cccc(F)c3)ccc12)C1CC1` : 16%

Measured %Inh (PIK3CG), entry `Fc1ccc(-c2nn3c(OCC(F)(F)F)cccc3c2-c2ccncc2)cc1` : 0%

Measured %Inh (PIK3CG), entry `CNc1ncnc2[nH]ncc12` : 5%

Measured %Inh (PIK3CG), entry `COc1cc2c(cc1OC[C@@H](O)CO)ncc1c3ccc(C#N)cc3[nH]c21` : 9%

Measured %Inh (PIK3CG), entry `Fc1ccc(-c2ncn(CCCN3CCOCC3)c2-c2cccnc2)cc1` : 0%

Measured %Inh (PIK3CG), entry `[2H]C([2H])(c1cccc(C(F)(F)F)c1C)n1ccn2c(=O)nc(N3CCOCC3)cc12` : 0%

Measured %Inh (PIK3CG), entry `O=c1cc(N2CCOCC2)nc2n(Cc3cccc4ccccc34)ccn12` : 3%

Measured %Inh (PIK3CG), entry Cc1c(Cn2c(C)nn3c(=O)cc(N4CCOC(C)C4)nc23)cccc1C(F)(F)F (stereo not drawn) : 64%

---

Assign %Inh to each entry below.
System: SLK
CONDITION_LABEL: concentration: 1 μM, replicates: in singlicate; n = 1
Answer with the figure and its unit, nothing else.

Entry `CN(C(=O)c1ccc(-c2cc(-c3c[nH]nc3-c3ccccn3)ccn2)cc1)C1CCOCC1` , %Inh reported as 0%

Entry `O=c1cc(N2CCOCC2)nc2n(Cc3cccc(F)c3)ccn12` , %Inh reported as 18%

Entry `CN1c2ccc(NCc3ccc(F)cc3)cc2-c2c(cnn2C)S1(=O)=O` , %Inh reported as 0%

Entry NCC(NC(=O)c1cc(-c2cn[nH]c2)c(-c2ccnc3[nH]ccc23)s1)c1ccccc1.O=C(O)C(F)(F)F.O=C(O)C(F)(F)F (stereo not shown) , %Inh reported as 0%

Entry `CCc1ccnc(/C=C/c2n[nH]c3cc(Sc4ccccc4C(=O)NC)ccc23)c1` , %Inh reported as 0%

Entry COc1ccc(CNC(=O)NC2CCN(c3ccnc(Nc4ccc(OC)cc4)n3)C2)cc1 (stereo not shown) , %Inh reported as 0%

Entry `CC(=O)Nc1ccc(COc2ccc(Nc3ccnc4cc(-c5ccccn5)ccc34)cc2)cc1.Cl` , %Inh reported as 0%

Entry `C[C@@H](Oc1cc(-n2cnc3ccc(NC(=O)NC(C)(C)C)cc32)sc1C(N)=O)c1ccccc1Cl` , %Inh reported as 59%

Entry `COC(=O)Nc1nc2cc(Oc3ccc(NC(=O)Nc4cc(F)ccc4F)cc3)ccc2[nH]1.Cl` , %Inh reported as 9%

Entry `NS(=O)(=O)CCc1cccc(Nc2nccc(-c3c(-c4cccc(NC(=O)c5c(F)cccc5F)c4)nn4ccccc34)n2)c1` , %Inh reported as 97.7%

Entry `N#Cc1c(N2CCOCC2)sc(-c2ccn[nH]2)c1-c1ccc(Cl)cc1` , %Inh reported as 17%

Entry Cc1nnc(-c2ccc3ncc(-c4ccc(S(C)=O)cc4)n3c2)o1 (stereo not shown) , %Inh reported as 14%

Entry `COc1ccc(S(=O)(=O)NC2CCN(c3cc(C)nc(Nc4cccc(C#N)c4)n3)CC2)cc1.O=C(O)C(F)(F)F` , %Inh reported as 8%

Entry `Cc1ccc(NC(=O)c2ccnc(N3CCN(C)CC3)c2)cc1-c1ccc(C(=O)NCC2CC2)cc1` , %Inh reported as 0%

Entry `O=C1NC(=O)C(N2CCc3ccccc32)=C1c1cccc(Cl)c1` , %Inh reported as 26%

Entry `Cc1cccc(Cn2ccn3c(=O)cc(N4CCOCC4)nc23)c1` , %Inh reported as 22%

Entry `COc1cc2c(cc1OC[C@@H](O)CO)ncc1c3ccc(C#N)cc3[nH]c21` , %Inh reported as 0%

Entry `O=C(Nc1n[nH]c2cc(-c3cccc(F)c3)ccc12)C1CC1` , %Inh reported as 11%

Entry `Cn1cc(-c2ccc3c(c2)CCN3C(=O)Cc2ccccc2Cl)c2c(N)ncnc21` , %Inh reported as 99.2%
